testSystem: Human rhinovirus A protease (Human rhinovirus sp.)
experimentalDetails: Percent inhibition of HRV-14 3C protease was measured at a concentration of 1 ug/mL
readoutKind: inhibition

Here are 2 compounds together with their reported answers.
1. COC(=O)/C=C/[C@H](CCC(N)=O)NC(=O)[C@H](Cc1ccccc1)NC(=O)[C@H](CC(C)C)NC(=O)[C@@H](NC(=O)OCc1ccccc1)C(C)C = 100%
2. CC(C)C[C@H](NC(=O)[C@@H](NC(=O)OC(C)(C)C)C(C)C)C(=O)N[C@@H](Cc1ccccc1)C(=O)N[C@H](/C=C/C(=O)O)CCC(N)=O = 43%

From here, focus on the item given below.
May I ask what inhibition has been recorded for COC(=O)/C=C/[C@H](CCC(N)=O)NC(=O)[C@H](Cc1ccccc1)NC(=O)[C@H](CC(C)C)NC(=O)[C@H](NC(=O)[C@@H](N)CCC(=O)O)C(C)C ? 100%

---

Test system: HeLa
experimentalDetails: Antiviral activity measured in cell culture assay, inhibiting plaque formation by 50% at subumolar concentrations.
Assay type: functional, cell-based
appliedConditions: Homo sapiens
Non-standard residues stand in square brackets, D forms with d. Residues, ends and D or L forms follow the SMILES beside them. ξ: configuration not given here. *: point of attachment. X1 = COC(=O)/C=C/[C@H](CCC(N)=O)N*; ξE = NC(CCC(=O)O)C(=O)O; Boc = CC(C)(C)OC(=O)*; OtBu = CC(C)(C)O*
With a cut-off of 0.9 µg/mL, any IC50 strictly below it is called TRUE; any IC50 meeting it or above is called FALSE.

Solved cases (2 shown):
1. CCOC(=O)/C=C/C(CCC(N)=O)NC(=O)OC(C)(C)C (configuration not stated) = FALSE
2. COC(=O)/C=C/[C@H](CCC(N)=O)NC(=O)[C@H](Cc1ccccc1)NC(=O)[C@H](CC(C)C)NC(=O)[C@@H](NC(=O)OCc1ccccc1)C(C)C = FALSE

Confirm or reject: IC50 of NC(=O)CCC(/C=C/S(=O)(=O)c1ccccc1)NC(=O)C(Cc1ccccc1)NC(=O)OCc1ccccc1 (configuration not stated) lies strictly below 0.9 µg/mL FALSE

Confirm or reject: IC50 of CCOC(=O)/C=C/[C@H](CCC(N)=O)NC(=O)[C@H](Cc1ccccc1)NC(=O)[C@H](CC(C)C)NC(=O)[C@@H](NC(=O)OC(C)(C)C)C(C)C lies strictly below 0.9 µg/mL TRUE

Confirm or reject: IC50 of COC(=O)/C=C/[C@H](CCC(N)=O)NC(=O)[C@H](Cc1ccccc1)NC(=O)[C@H](CC(C)C)NC(=O)[C@@H](NC(=O)OC(C)(C)C)C(C)C lies strictly below 0.9 µg/mL TRUE

Confirm or reject: IC50 of COC(=O)/C=C/[C@H](CCC(N)=O)NC(=O)[C@H](Cc1ccccc1)NC(=O)[C@H](CC(C)C)NC(=O)[C@@H](NC(=O)[C@@H](N)CCC(=O)O)C(C)C lies strictly below 0.9 µg/mL FALSE

Confirm or reject: IC50 of CCOC(=O)/C=C/C(CCC(N)=O)NC(=O)OCc1ccccc1 (configuration not stated) lies strictly below 0.9 µg/mL FALSE

Confirm or reject: IC50 of COC(=O)/C=C/C(CCC(N)=O)NC(=O)C(Cc1ccccc1)NC(=O)OC(C)(C)C (configuration not stated) lies strictly below 0.9 µg/mL FALSE

Confirm or reject: IC50 of COC(=O)/C=C/C(CCC(N)=O)NC(=O)C(Cc1ccccc1)NC(=O)OCc1ccccc1 (configuration not stated) lies strictly below 0.9 µg/mL FALSE

Confirm or reject: IC50 of CC(C)C[C@H](NC(=O)[C@@H](NC(=O)OC(C)(C)C)C(C)C)C(=O)N[C@@H](Cc1ccccc1)C(=O)N[C@H](/C=C/C(=O)O)CCC(N)=O lies strictly below 0.9 µg/mL FALSE

Confirm or reject: IC50 of CCOC(=O)/C=C/C(CCC(N)=O)NC(=O)C(Cc1ccccc1)NC(=O)OC(C)(C)C (configuration not stated) lies strictly below 0.9 µg/mL FALSE

Confirm or reject: IC50 of COC(=O)/C=C/[C@H](CCC(N)=O)NC(=O)[C@H](Cc1ccccc1)NC(=O)[C@H](CC(C)C)NC(=O)[C@@H](NC(=O)C(CCC(=O)OC(C)(C)C)NC(=O)OC(C)(C)C)C(C)C (some centres not stated) (Boc-[ξE](OtBu)VLF-X1) lies strictly below 0.9 µg/mL FALSE

---

inhibition overview
testSystem: Human rhinovirus A protease (Human rhinovirus sp.)
experimentalDetails: Percent inhibition of HRV-14 3C protease was measured at a concentration of 1 ug/mL
Non-standard residues stand in square brackets, D forms with d. Residues, ends and D or L forms follow the SMILES beside them. ξ: configuration not given here. *: point of attachment. X1 = COC(=O)/C=C/[C@H](CCC(N)=O)N*; ξE = NC(CCC(=O)O)C(=O)O; Boc = CC(C)(C)OC(=O)*; OtBu = CC(C)(C)O*
All answers are understood in %, so give the number only.

May I ask what inhibition has been recorded for CCOC(=O)/C=C/[C@H](CCC(N)=O)NC(=O)[C@H](Cc1ccccc1)NC(=O)[C@H](CC(C)C)NC(=O)[C@@H](NC(=O)OC(C)(C)C)C(C)C ? 100

May I ask what inhibition has been recorded for COC(=O)/C=C/[C@H](CCC(N)=O)NC(=O)[C@H](Cc1ccccc1)NC(=O)[C@H](CC(C)C)NC(=O)[C@@H](NC(=O)OC(C)(C)C)C(C)C ? 100

May I ask what inhibition has been recorded for COC(=O)/C=C/[C@H](CCC(N)=O)NC(=O)[C@H](Cc1ccccc1)NC(=O)[C@H](CC(C)C)NC(=O)[C@@H](NC(=O)C(CCC(=O)OC(C)(C)C)NC(=O)OC(C)(C)C)C(C)C (stereo partly drawn) (Boc-[ξE](OtBu)VLF-X1) ? 100

---

testSystem: Human rhinovirus A protease (Human rhinovirus sp.) (UniProt Q4U254)
Sequence (Q4U254 as listed by the source): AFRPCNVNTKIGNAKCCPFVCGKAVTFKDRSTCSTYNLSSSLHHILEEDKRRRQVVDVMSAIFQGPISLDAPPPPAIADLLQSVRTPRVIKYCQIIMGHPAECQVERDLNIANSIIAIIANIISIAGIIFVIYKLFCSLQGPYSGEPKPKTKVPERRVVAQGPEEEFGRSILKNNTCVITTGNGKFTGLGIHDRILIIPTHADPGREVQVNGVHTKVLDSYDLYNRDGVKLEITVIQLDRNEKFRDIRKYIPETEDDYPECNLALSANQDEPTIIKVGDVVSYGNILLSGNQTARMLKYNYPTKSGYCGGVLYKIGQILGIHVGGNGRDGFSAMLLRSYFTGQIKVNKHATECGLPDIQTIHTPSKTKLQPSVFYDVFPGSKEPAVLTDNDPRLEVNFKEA
experimentalDetails: Percent inhibition of HRV-14 3C protease was measured at a concentration of 100 ug/mL(average of duplicates which agreed within +/- 10%)
readoutKind: inhibition (%)
All answers are understood in %, so give the number only.

Here are 2 compounds together with their reported answers.
1. CCOC(=O)/C=C/C(CCC(N)=O)NC(=O)C(Cc1ccccc1)NC(=O)OC(C)(C)C (stereo not drawn) = 39
2. COC(=O)/C=C/C(CCC(N)=O)NC(=O)OC(C)(C)C (stereo not drawn) = 18

From here, focus on the item given below.
May I ask what inhibition has been recorded for CCOC(=O)/C=C/C(CCC(N)=O)NC(=O)OCc1ccccc1 (stereo not drawn) ? 18
